Molecular target: recombinant cyclin C–CDK8 (Homo sapiens, UniProt P49336)
Sequence (P49336 whole entry, one chain of several): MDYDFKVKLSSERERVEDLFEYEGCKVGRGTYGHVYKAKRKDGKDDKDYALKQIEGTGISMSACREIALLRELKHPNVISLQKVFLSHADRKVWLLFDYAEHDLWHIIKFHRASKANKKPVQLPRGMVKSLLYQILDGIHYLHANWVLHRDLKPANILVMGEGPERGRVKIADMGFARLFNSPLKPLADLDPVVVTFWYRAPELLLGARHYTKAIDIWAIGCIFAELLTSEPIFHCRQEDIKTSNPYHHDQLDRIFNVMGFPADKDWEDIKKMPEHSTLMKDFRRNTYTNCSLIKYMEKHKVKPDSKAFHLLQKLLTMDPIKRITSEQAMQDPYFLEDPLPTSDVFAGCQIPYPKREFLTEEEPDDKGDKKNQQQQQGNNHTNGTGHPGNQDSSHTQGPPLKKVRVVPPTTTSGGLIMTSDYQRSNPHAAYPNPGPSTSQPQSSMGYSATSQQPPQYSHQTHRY
Experiment: CDK8 radiometric filter-binding kinase activity assay
Details: read-out: inhibition of kinase activity of cyclin C–CDK8, IC50
Result Type: IC50

Q. Sample CC1CCc2nc(N)c(C#N)c(-c3cccnc3)c2C1 (stereo not shown) — what was its IC50?
A. ~500 nM

====

Target: recombinant cyclin C–CDK19 (Homo sapiens, UniProt Q9BWU1)
Sequence (Q9BWU1 whole entry): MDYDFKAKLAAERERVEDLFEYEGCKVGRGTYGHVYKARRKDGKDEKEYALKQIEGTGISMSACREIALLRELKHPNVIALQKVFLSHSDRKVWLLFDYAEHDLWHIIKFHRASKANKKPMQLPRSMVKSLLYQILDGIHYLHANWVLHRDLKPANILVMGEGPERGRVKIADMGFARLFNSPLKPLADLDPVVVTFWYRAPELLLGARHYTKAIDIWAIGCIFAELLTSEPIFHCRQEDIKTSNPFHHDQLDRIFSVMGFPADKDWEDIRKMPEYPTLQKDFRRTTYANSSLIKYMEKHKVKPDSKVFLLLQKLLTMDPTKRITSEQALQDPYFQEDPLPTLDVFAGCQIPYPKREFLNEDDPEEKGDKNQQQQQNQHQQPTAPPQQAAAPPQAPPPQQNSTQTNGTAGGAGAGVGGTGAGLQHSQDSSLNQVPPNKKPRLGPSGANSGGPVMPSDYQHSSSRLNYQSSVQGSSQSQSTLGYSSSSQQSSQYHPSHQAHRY
Sequence (P24863 whole entry partner): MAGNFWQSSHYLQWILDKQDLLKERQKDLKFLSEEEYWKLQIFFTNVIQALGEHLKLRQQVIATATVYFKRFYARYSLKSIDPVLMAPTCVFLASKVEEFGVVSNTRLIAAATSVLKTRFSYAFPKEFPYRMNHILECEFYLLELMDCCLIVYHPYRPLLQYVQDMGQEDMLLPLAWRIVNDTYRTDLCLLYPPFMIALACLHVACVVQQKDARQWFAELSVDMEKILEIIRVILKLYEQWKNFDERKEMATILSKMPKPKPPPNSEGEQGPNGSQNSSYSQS
Experiment: CDK19 radiometric filter-binding kinase activity assay
Details: read-out: inhibition of kinase activity of cyclin C–CDK19, IC50
Result Type: IC50

Q. Reported IC50, compound CC1CCc2nc(N)c(C#N)c(-c3cccnc3)c2C1 (stereo not shown) : ____
A. > 30 µM

Provenance of the data: paper PMC5693369
